The measurements presented in this section are drawn from ChEMBL document CHEMBL5260844.

test-description: Stability in mouse plasma assessed as parent compound remaining after 5 hrs
Format: ADME, cell-free
measurement-parameters: read-out: Stability
measured-quantity: remaining at 5 h (%)

1) CC1CC(=O)NN=C1c1ccc(N2CCOCC2)c(F)c1 (racemic); 101
2) CCN(CC)c1ccc(C2=NNC(=O)CC2C)cc1[N+](=O)[O-] (configuration not stated); 87
3) C[C@@H]1CC(=O)NN=C1c1ccc(Cl)cc1; 86
4) C[C@@H]1CC(=O)NN=C1c1ccc(-c2cncnc2)cc1; 108
5) CC1CC(=O)NN=C1c1ccc(F)c(F)c1 (racemic); 96
6) CC1CC(=O)NN=C1c1ccc(N2CCOCC2)cc1 (racemic); 105
7) CCN(CC)c1ccc(C2=NNC(=O)CC2C)cc1 (racemic); 96

* * *

test-description: Microsomal stability in mouse liver microsomes assessed as parent compound remaining at 1 uM measured after 1 hr in presence of NADPH by UHPLC-MS analysis
Type: ADME, Microsome
measurement-parameters: read-out: Stability
measured-quantity: remaining at 1 h, 1 µM (%)

1) CC1CC(=O)NN=C1c1ccc(N2CCOCC2)cc1 (racemic); 99

I: CCN(CC)c1ccc(C2=NNC(=O)CC2C)cc1[N+](=O)[O-] (configuration not stated)
II: C[C@@H]1CC(=O)NN=C1c1ccc(-c2cncnc2)cc1
Asked: # argmax over remaining at 1 h, 1 µM for candidates I and II Selection: enter the item's label.
Given back: II
(II: 105%, I: 23%)

a: CCN(CC)c1ccc(C2=NNC(=O)CC2C)cc1 (racemic)
b: C[C@@H]1CC(=O)NN=C1c1ccc(Cl)cc1
Asked: # argmax over remaining at 1 h, 1 µM for candidates a and b Selection: enter the item's label.
Given back: b

* * *

test-description: Stability in human plasma assessed as parent compound remaining after 5 hrs
Format: ADME, cell-free
measurement-parameters: read-out: Stability
measured-quantity: remaining at 5 h (%)

1) CC1CC(=O)NN=C1c1ccc(N2CCOCC2)c(F)c1 (racemic); 80
2) CC1CC(=O)NN=C1c1ccc(N2CCOCC2)cc1 (racemic); 87
3) CCN(CC)c1ccc(C2=NNC(=O)CC2C)cc1 (racemic); 104
4) CC1CC(=O)NN=C1c1ccc(F)c(F)c1 (racemic); 93
5) C[C@@H]1CC(=O)NN=C1c1ccc(Cl)cc1; 93
6) C[C@@H]1CC(=O)NN=C1c1ccc(-c2cncnc2)cc1; 104
7) CCN(CC)c1ccc(C2=NNC(=O)CC2C)cc1[N+](=O)[O-] (configuration not stated); 85

* * *

System: HeLa
test-description: Cytotoxicity against human HeLa cells assessed as cell growth inhibition measured after 48 hrs by […] reagent based assay
Type: functional
measured-quantity: EC50 (nM)
Entry rule: numbers only, all in nM.

1) C[C@@H]1CC(=O)NN=C1c1ccc(C2=CCCCC2)cc1; 2.2
2) C[C@@H]1CC(=O)NN=C1c1ccc(Cl)c(Cl)c1; 4.5
3) C[C@@H]1CC(=O)NN=C1c1ccc(N2CCN(C)CC2)cc1; 310
4) CCN(CC)c1ccc(C2=NNC(=O)C[C@H]2C)cc1; 3.3
5) CC(=O)Nc1ccc(C2=NNC(=O)C[C@H]2C)cc1Cl; 24
6) C[C@@H]1CC(=O)NN=C1c1ccc(-c2cncnc2)cc1; 13

Let us examine a further case.
Asked: # EC50 lookup, item CCCc1ccc(C2=NNC(=O)C[C@H]2C)cc1
Given back: 16

* * *

# maps each entry to its Ratio IC50/EC50
test-description: Selectivity ratio, ratio of IC50 for human PDE3B to EC50 for cytotoxicity against human HeLa cells
// return just the number, without any unit appended

Worked examples follow.
1. C[C@@H]1CC(=O)NN=C1c1ccc(N2CCOCC2)c(F)c1; 2.4
2. CC(=O)Nc1ccc(C2=NNC(=O)C[C@H]2C)cc1Cl; 0.38
3. C[C@@H]1CC(=O)NN=C1c1ccc(N2CCN(C)CC2)cc1; 2.4
4. CC1CC(=O)NN=C1c1ccc(N2CCOCC2)cc1 (racemic); 2.4

Let us examine a further case.
Asked: # Ratio IC50/EC50 lookup, item C[C@@H]1CC(=O)NN=C1c1ccc(Cl)c(Cl)c1
Given back: 2.4

* * *

test-description: Microsomal stability in human liver microsomes assessed as parent compound remaining measured after 1 hr in presence of NADPH by UHPLC-MS analysis
Format: ADME, Microsome
measurement-parameters: read-out: Stability
measured-quantity: remaining at 1 h (%)

1) CC1CC(=O)NN=C1c1ccc(N2CCOCC2)cc1 (racemic); 94
2) CCN(CC)c1ccc(C2=NNC(=O)CC2C)cc1 (racemic); 89
3) C[C@@H]1CC(=O)NN=C1c1ccc(-c2cncnc2)cc1; 83
4) CC1CC(=O)NN=C1c1ccc(F)c(F)c1 (racemic); 108
5) CCN(CC)c1ccc(C2=NNC(=O)CC2C)cc1[N+](=O)[O-] (configuration not stated); 95
6) CC1CC(=O)NN=C1c1ccc(N2CCOCC2)c(F)c1 (racemic); 109
7) C[C@@H]1CC(=O)NN=C1c1ccc(Cl)cc1; 81

* * *

Tested on: HeLa
test-description: Cytotoxicity against human HeLa cells assessed as cell growth inhibition measured after 48 hrs by […] reagent based assay
Assay type: functional
# maps each entry to its EC50
Entry rule: numbers only, all in µM.

Worked examples follow.
1) CC1CC(=O)NN=C1c1ccc(N2CCOCC2)c(F)c1 (racemic); 0.0028
2) CC1CC(=O)NN=C1c1ccc(F)c(F)c1 (racemic); 0.064

Asked: # EC50 lookup, item C[C@@H]1CC(=O)NN=C1c1ccc(N2CCOCC2)cc1
Given back: 0.013
